Quick list: GI50 per entry.
Tested on: TK-10
Assay: NCI tumour cell line growth inhibition, 48 h
Active and inactive are the calls of the source. Cut-off read from the data, not from the text of the source: active = GI50 up to about 1.1 µM and inactive = higher.
Measured parameter: GI50

[[record]]
compound = "C[n+]1c(-c2ccc(/C=N/Nc3ccnc(N/N=C/c4ccc(-c5cn6ccsc6[n+]5C)cc4)n3)cc2)cn2ccsc21"
measured_parameter = "GI50"
measured_value = "25.8 µM (inactive)"

[[record]]
compound = "N#Cc1c(O)c2ccccc2[nH]c1=O"
measured_parameter = "GI50"
measured_value = "> 100 µM (inactive)"

[[record]]
compound = "O=C(CCC(=O)Nc1ccc(Cl)cc1)CC(=O)c1ccc(F)cc1"
measured_parameter = "GI50"
measured_value = "> 100 µM (inactive)"

[[record]]
compound = "O=C(/C=C/c1ccccc1)CC1OC(=O)c2ccccc21 (centres undefined)"
measured_parameter = "GI50"
measured_value = "> 100 µM (inactive)"

[[record]]
compound = "CCOC(=O)NC(N(C)C(C(C)C)P(=O)(OCC)OCC)(C(F)(F)F)C(F)(F)F (centres undefined)"
measured_parameter = "GI50"
measured_value = "> 100 µM (inactive)"

[[record]]
compound = "COc1cc(CSc2ccc(O)cc2)cc(O)c1O"
measured_parameter = "GI50"
measured_value = "53.1 µM (inactive)"

[[record]]
compound = "COc1ccc(N2C(=O)C3c4[nH]c5ccc(F)cc5c4C4CCC(c5ccccc5)CC4C3C2=O)cc1 (centres undefined)"
measured_parameter = "GI50"
measured_value = "21.9 µM (inactive)"

[[record]]
compound = "CCOC(=O)c1sc(=S)n(-c2ccc(Cl)cc2)c1-n1cc(-c2ccccc2)c(C#N)c1N"
measured_parameter = "GI50"
measured_value = "11.3 µM (inactive)"

[[record]]
compound = "CCC1C(c2cccc(OC)c2O)c2cc3c(cc2OC1N1CCCC1)OCO3 (centres undefined)"
measured_parameter = "GI50"
measured_value = "16.4 µM (inactive)"

[[record]]
compound = "CO/N=C(\\C(=O)N(C)n1cnnc1)c1csc(NC(c2ccccc2)(c2ccccc2)c2ccccc2)n1"
measured_parameter = "GI50"
measured_value = "> 10 µM (inactive)"

[[record]]
compound = "CSc1c(C#N)c(=O)[nH]c2[nH]nc(C)c12"
measured_parameter = "GI50"
measured_value = "> 100 µM (inactive)"

[[record]]
compound = "COc1ccc2nc(N/N=C/C(C)=N/Nc3cc(C)c4cc(OC)ccc4n3)cc(C)c2c1"
measured_parameter = "GI50"
measured_value = "30.5 µM (inactive)"

[[record]]
compound = "CC1=CC2(O)OC3(CC2=C(C)C)C(C)CCC13 (centres undefined)"
measured_parameter = "GI50"
measured_value = "> 100 µM (inactive)"

[[record]]
compound = "CCOC(=O)P(=O)(O)c1ccc(N(C)Cc2ccccc2)cc1"
measured_parameter = "GI50"
measured_value = "> 100 µM (inactive)"

[[record]]
compound = "Nc1nc(N)c(N=O)c(OCC2CCCCC2)n1"
measured_parameter = "GI50"
measured_value = "6.64 µM (inactive)"

[[record]]
compound = "O=C(O)CCc1nn2c(nc1=O)sc1ccc3ccccc3c12"
measured_parameter = "GI50"
measured_value = "> 100 µM (inactive)"

[[record]]
compound = "CC1=C(C(=O)NCc2ccccc2)C(c2ccc([N+](=O)[O-])cc2)C(C(=O)NCc2ccccc2)=C(C)N1"
measured_parameter = "GI50"
measured_value = "42.8 µM (inactive)"

[[record]]
compound = "O=C1CC(c2cccc(F)c2)Nc2cc3c(cc21)OCO3 (centres undefined)"
measured_parameter = "GI50"
measured_value = "1.13 µM (inactive)"

[[record]]
compound = "C=C1C(=O)O[C@@H]2C[C@]3(C)CC[C@]4(C)[C@H](CC[C@@H]5[C@@]6(C)CCC(=O)C(C)(C)[C@@H]6CC[C@]54C)[C@H]3[C@H]12 [OCHRACEOLIDE A]"
measured_parameter = "GI50"
measured_value = "16 µM (inactive)"

[[record]]
compound = "CC1CC(c2ccc(Cl)cc2)=Nc2ccccc2S1 (centres undefined)"
measured_parameter = "GI50"
measured_value = "> 100 µM (inactive)"

[[record]]
compound = "O=C(O)[C@@H]1OCCOCCO[C@@H](C(=O)O)[C@H](C(=O)O)OCCOCCO[C@H]1C(=O)O"
measured_parameter = "GI50"
measured_value = "> 100 µM (inactive)"

[[record]]
compound = "Cc1cc(N(CCC#N)CCC#N)ccc1C(/N=N\\c1ccc(C(=O)O)cc1)=N\\NC(=O)c1cc(Cl)ccc1O"
measured_parameter = "GI50"
measured_value = "40.2 µM (inactive)"

[[record]]
compound = "O=C1Nc2ccccc2/C1=C/c1c(Cl)[nH]c2ccc(O)cc12"
measured_parameter = "GI50"
measured_value = "10.7 µM (inactive)"

[[record]]
compound = "CC(C)C(/C=C/c1ccccc1)=N\\NC(=O)N/N=C(/C=C/c1ccccc1)C(C)C"
measured_parameter = "GI50"
measured_value = "33.8 µM (inactive)"

[[record]]
compound = "CC(C)(C)NCc1cc(Nc2ccnc3cc(Cl)ccc23)cc(-c2ccc(Cl)cc2)c1O"
measured_parameter = "GI50"
measured_value = "2.43 µM (inactive)"

[[record]]
compound = "COc1ccccc1NC(=O)CC(=O)N1N=C(N2c3ccccc3Sc3ccccc32)CC1c1ccccc1 (centres undefined)"
measured_parameter = "GI50"
measured_value = "> 100 µM (inactive)"

[[record]]
compound = "NC(=S)N/N=C(\\C(=O)Nc1ccc(Cl)c(Cl)c1)C1=NN(c2ccccc2)C(c2cccc([N+](=O)[O-])c2)CC1=O (centres undefined)"
measured_parameter = "GI50"
measured_value = "> 100 µM (inactive)"

[[record]]
compound = "CCc1nc(N)nc(N)c1-c1ccc(Cl)c([N+](=O)[O-])c1"
measured_parameter = "GI50"
measured_value = "17.9 µM (inactive)"

[[record]]
compound = "Cc1cc2nc3c(C#N)c(-c4ccccc4)cc(Nc4cccc(C(F)(F)F)c4)n3c2cc1C"
measured_parameter = "GI50"
measured_value = "7.69 µM (inactive)"

[[record]]
compound = "N/N=C1\\C(=O)N(Cc2ccccc2)C(=O)C1C(=O)NCc1ccccc1 (centres undefined)"
measured_parameter = "GI50"
measured_value = "> 100 µM (inactive)"

[[record]]
compound = "CC(Oc1ccc(OCC2CCCCC2)cc1)C(=O)OCC(=O)c1ccc(-c2ccccc2)cc1 (centres undefined)"
measured_parameter = "GI50"
measured_value = "> 100 µM (inactive)"

[[record]]
compound = "CC1=NN(c2cccc(Cl)c2)C2(C1=Cc1ccc(N(C)C)cc1)C(Cl)C(=O)N2c1nc2ccccc2s1 (centres undefined)"
measured_parameter = "GI50"
measured_value = "76.4 µM (inactive)"

[[record]]
compound = "Cc1cc(N(CCC#N)CCC#N)ccc1/C=C1N=C(/C=C\\c2ccccc2)N(NC(=O)CC(=O)Nc2ccccc2Cl)C\\1=O"
measured_parameter = "GI50"
measured_value = "> 100 µM (inactive)"

[[record]]
compound = "CSc1ccc(Cc2cc(C(C)(C)C)cc(C(C)(C)C)c2O)cc1"
measured_parameter = "GI50"
measured_value = "12.9 µM (inactive)"

[[record]]
compound = "C/C(=N\\Nc1ccc([N+](=O)[O-])cc1[N+](=O)[O-])c1ccc2ccccc2n1"
measured_parameter = "GI50"
measured_value = "39.6 µM (inactive)"

[[record]]
compound = "CC(C)(C)C1=Cc2cc3cc(C(C)(C)C)[nH]c(=O)c3cc2S(=O)(=O)N1"
measured_parameter = "GI50"
measured_value = "29.6 µM (inactive)"

[[record]]
compound = "Cc1ccc(S(=O)(=O)N[C@H](C(=O)O)c2ccccc2)cc1"
measured_parameter = "GI50"
measured_value = "> 100 µM (inactive)"

[[record]]
compound = "COc1ccc(C(C#N)Cc2cc(OC)c(OC)c(OC)c2)cc1 (centres undefined)"
measured_parameter = "GI50"
measured_value = "37.6 µM (inactive)"

[[record]]
compound = "Cc1cccc2c(=O)cc(-c3ccccc3)[nH]c12"
measured_parameter = "GI50"
measured_value = "> 100 µM (inactive)"


====

Tested on: M14
Assay: NCI tumour cell line growth inhibition, 48 h
Where a name gives a salt, the structure may show the parent alone. Calls of active or inactive are those of the source. Cut-off read from the data, not from the text of the source: active = GI50 up to about 1.1 µM and inactive = higher.
Labels: y for active, n for inactive

[[record]]
molecule = "NCCc1cc(O)c(O)cc1O [OXIDOPAMINE HYDROCHLORIDE]"
group_label = "n"

[[record]]
molecule = "CC1=C(C(=O)Nc2cccc(Cl)c2)C(c2ccccc2O)C(C(=O)Nc2cccc(Cl)c2)=C(C)N1"
group_label = "n"

[[record]]
molecule = "CN1CC2CN(Cc3ccccc3)CCN2c2cccnc21 (stereo unspecified)"
group_label = "n"

[[record]]
molecule = "N#CC1=C(N)OC(c2ccc([N+](=O)[O-])cc2)C1(C#N)C#N (stereo unspecified)"
group_label = "n"

[[record]]
molecule = "Cc1cccc(/C=N/NC(=S)N2CCCC2)n1"
group_label = "y"

[[record]]
molecule = "CCCN(CCC)C1CCc2c(ccc3cc[nH]c23)C1 (stereo unspecified)"
group_label = "n"

